TARGET_UNDER_TEST: NAD(P)H dehydrogenase [quinone] 1 (Homo sapiens)
ASSAY: Activation of human NQO1 assessed as specific activity per mg of protein at 100 uM by measuring decrease in substrate concentration by HPLC analysis
READOUT_KIND: Activity (µmol/min)
The response must be a number in µmol/min with no trailing unit.

Completed entries (count: 2):
                            chemical_string  numeric_result
0  O=[N+]([O-])c1ccc2c(c1)[n+]([O-])c1n2CCc2ccccc2-1           0.016
1  NC(=O)c1cc([N+](=O)[O-])cc([N+](=O)[O-])c1N1CCc2ccccc2C1           0.053

Let's switch to this molecule now.
Tell me its Activity given "O=[N+]([O-])c1cc([N+](=O)[O-])c(N2CCc3ccccc3C2)c(C(F)(F)F)c1" as the entry.
0.11

---

Entries and their Activity values follow.
Test system: Escherichia coli
ASSAY: Activation of Escherichia coli nitroreductase assessed as specific activity per mg of protein at 100 uM by measuring decrease in substrate concentration by HPLC analysis
The response must be a number in µmol/min with no trailing unit.

>>> print(df.to_string())
                            chemical_string  readout_kind  units_text  numeric_result
0  O=[N+]([O-])c1ccc(N2CCc3ccccc3C2)c([N+](=O)[O-])c1      Activity    µmol/min            0.44

Tell me its Activity given "O=C(O)c1cc([N+](=O)[O-])c(N2CCc3ccccc3C2)c([N+](=O)[O-])c1" as the entry.
0.02

Tell me its Activity given "O=[N+]([O-])c1cc([N+](=O)[O-])c(N2CCc3ccccc3C2)c(C(F)(F)F)c1" as the entry.
41.5

---

Tested on: Escherichia coli
ASSAY: Activation of Escherichia coli nitroreductase assessed as decrease in substrate concentration at 100 uM by HPLC analysis relative to CB-1954
Where fold change (FC) equals or exceeds 2, the correct label is condition met; where it does not, the label is condition not met.

# example entries with known answers
In [3]: df
Out[3]:
                            chemical_string              class
0  O=[N+]([O-])c1cc(C(F)(F)F)c2c(c1)[n+]([O-])c1n2CCc2c-1cccc2[N+](=O)[O-]  condition not met
1  NC(=O)c1cc2c(cc1[N+](=O)[O-])[n+]([O-])c1n2CCc2c-1cccc2[N+](=O)[O-]  condition not met
2  NC(=O)c1cc([N+](=O)[O-])c(N2CCc3ccccc3C2)c([N+](=O)[O-])c1  condition not met
3  O=[N+]([O-])c1cc([N+](=O)[O-])c(N2CCc3ccccc3C2)c(C(F)(F)F)c1      condition met
4  NC(=O)c1cc(N2CCc3ccccc3C2)c([N+](=O)[O-])cc1[N+](=O)[O-]      condition met
5  O=[N+]([O-])c1ccc2c(c1)[n+]([O-])c1n2CCc2ccccc2-1  condition not met
6  NC(=O)c1cc2c(cc1[N+](=O)[O-])[n+]([O-])c1n2CCc2ccccc2-1  condition not met
7  O=C(O)c1cc([N+](=O)[O-])cc([N+](=O)[O-])c1N1CCc2ccccc2C1      condition met

Does the compound "O=[N+]([O-])c1cnc2c(c1)[n+]([O-])c1n2CCc2ccccc2-1" have recorded fold change (FC) that is 2 or more?
condition met
